target: Atto488-labeled GRB2-SH2 domain (UniProt P62993 60-152, Atto488 label); assay: MST
Sequence (P62993 60-152): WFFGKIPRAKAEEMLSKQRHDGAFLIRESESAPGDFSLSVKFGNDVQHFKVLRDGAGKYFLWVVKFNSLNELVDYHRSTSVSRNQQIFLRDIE
Square brackets hold non-standard residues; d marks the D form. Ends that are not written are not given here. pY = N[C@@H](Cc1ccc(OP(=O)(O)O)cc1)C(=O)O
Here, each record is paired with measured Kd data.
recorded.endpoint: Kd

binder | recorded.endpoint | recorded.measurement
FLPVPE[pY]INQSVPKR [Phosphorylated EGFR synthetic peptide] | Kd | 7.2 µM
PWVNYQDGNLN [MRE11 peptide] | Kd | 33 µM
